- target.under.test: T1, H2L7-K12V/R71A
- T1 construct: Variant of H2L7 with changes in VH only
- experiment.summary: inhibition ELISA as in Example 6: antigen in solution titrated, antibody fixed, AβpE3-40 coat
pIC50: −log10 of the molar value.
parameter.measured: pIC50

Given the entry EVHHQKLVFFAEDVGSNK (peptide, UniProt P05067 682-699, looked up, pyroglutamate (pE) at position 11, the N-terminus, range 11-28; The range counts on Aβ numbering, not on APP) [AβpE11-28 monomer] , report its measured pIC50.
< 4.90
